Target: NMDA Receptor (NR1/NR2B Receptor) (Rattus norvegicus, UniProt P35439+Q00960)
Construct: this was used as a membrane specimen in an experiment; from tissue; host or cells: rat cerebral cortex membranes
Sequence (Q00960 27-1482, other chains not shown): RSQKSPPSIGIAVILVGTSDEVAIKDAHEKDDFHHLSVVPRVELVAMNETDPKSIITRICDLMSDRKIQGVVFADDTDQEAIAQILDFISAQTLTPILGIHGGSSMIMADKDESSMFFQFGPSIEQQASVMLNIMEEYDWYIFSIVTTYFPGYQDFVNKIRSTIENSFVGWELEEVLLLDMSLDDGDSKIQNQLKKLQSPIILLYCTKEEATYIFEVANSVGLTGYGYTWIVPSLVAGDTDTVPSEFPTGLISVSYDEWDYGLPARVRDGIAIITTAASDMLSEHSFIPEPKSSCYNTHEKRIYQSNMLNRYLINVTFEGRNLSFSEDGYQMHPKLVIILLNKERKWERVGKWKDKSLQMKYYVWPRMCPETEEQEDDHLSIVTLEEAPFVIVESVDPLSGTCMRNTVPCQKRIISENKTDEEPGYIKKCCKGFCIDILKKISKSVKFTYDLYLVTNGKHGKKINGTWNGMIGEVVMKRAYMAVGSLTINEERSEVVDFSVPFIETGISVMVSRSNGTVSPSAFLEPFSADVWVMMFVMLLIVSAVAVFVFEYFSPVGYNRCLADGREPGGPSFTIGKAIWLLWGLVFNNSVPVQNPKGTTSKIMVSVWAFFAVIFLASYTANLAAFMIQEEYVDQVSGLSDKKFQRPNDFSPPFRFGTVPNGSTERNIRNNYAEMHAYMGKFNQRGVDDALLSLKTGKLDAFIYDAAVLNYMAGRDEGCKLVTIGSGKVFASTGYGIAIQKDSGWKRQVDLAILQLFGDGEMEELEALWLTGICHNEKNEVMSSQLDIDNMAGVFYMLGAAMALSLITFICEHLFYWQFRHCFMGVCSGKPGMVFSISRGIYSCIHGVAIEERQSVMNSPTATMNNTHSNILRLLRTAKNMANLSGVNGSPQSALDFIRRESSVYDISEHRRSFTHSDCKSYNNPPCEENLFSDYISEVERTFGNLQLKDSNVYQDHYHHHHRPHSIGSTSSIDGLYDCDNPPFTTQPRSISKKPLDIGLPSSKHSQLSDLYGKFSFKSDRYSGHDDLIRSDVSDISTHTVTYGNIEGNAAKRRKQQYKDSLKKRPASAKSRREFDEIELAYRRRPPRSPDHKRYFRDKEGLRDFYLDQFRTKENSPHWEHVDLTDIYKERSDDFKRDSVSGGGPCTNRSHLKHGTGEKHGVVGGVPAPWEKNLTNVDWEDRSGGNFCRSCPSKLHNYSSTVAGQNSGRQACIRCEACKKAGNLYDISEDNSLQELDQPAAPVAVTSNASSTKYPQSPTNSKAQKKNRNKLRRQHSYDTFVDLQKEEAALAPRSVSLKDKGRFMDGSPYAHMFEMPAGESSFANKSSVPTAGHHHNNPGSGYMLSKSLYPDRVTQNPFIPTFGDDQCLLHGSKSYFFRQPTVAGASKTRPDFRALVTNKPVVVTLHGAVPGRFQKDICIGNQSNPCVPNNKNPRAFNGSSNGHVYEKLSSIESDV
Assay: Experiment of binding to NMDA receptor (NR1/NR2B receptor), [3H]-Ifenprodil competition, rat cerebral cortex membrane
Conditions: [3H]-Ifenprodil 5 nM, GBR-12909 3 μM, ice temperature 120 minutes
test-readout: IC50 (µM)

# example entries with known answers
COc1c(F)cc(N2CCN(C(=O)CNc3ccc4[nH]c(=O)oc4c3)C[C@H]2C)cc1F [Compound I-43]    0.065
Cc1ccc(N2CCN(C(=O)C(=O)Nc3ccc4[nH]c(=O)oc4c3)[C@H](C)C2)cc1F [Compound I-27]    0.035

a. Cc1ccc(N2CCN(C(=O)C(=O)Nc3ccc4[nH]c(=O)oc4c3)[C@H](C)C2)cc1 [Compound I-22]
b. Cc1cc(N2CCN(C(=O)C(=O)Nc3ccc4[nH]c(=O)oc4c3)CC2)ccc1Cl [Compound I-37]
Pick the one with the larger IC50: a vs b Pick one; state its label. a
(a: 0.085 µM, b: 0.029 µM)

I. COCc1ccc(N2CCN(C(=O)C(=O)Nc3ccc4[nH]c(=O)oc4c3)[C@H](C)C2)cc1F [Compound I-34]
II. C[C@@H]1CN(C(=O)C(=O)Nc2ccc3[nH]c(=O)oc3c2)CCN1c1ccc(C(F)(F)F)cc1 [Compound I-50]
Just curious, which one has the larger IC50 reading, I or II ? Field: selected label. Fill in the label of the entry you choose. I

====

# melting point per record follows

COc1c(F)cc(N2CCN(C(=O)CNc3ccc4[nH]c(=O)oc4c3)CC2)cc1F [Compound I-7]    194 to 196 °C
O=C(CNc1ccc2[nH]c(=O)oc2c1)N1CCN(c2ccc(Cl)c(F)c2)CC1 [Compound I-1]    136 to 138 °C
O=C(CN1CCN(c2ccc(Cl)cc2)CC1=O)Nc1ccc2[nH]c(=O)oc2c1 [Compound I-67]    223 to 225 °C
CC(Nc1ccc2[nH]c(=O)oc2c1)C(=O)N1CCN(c2ccc(Cl)c(F)c2)CC1 (stereo not shown) [Compound I-4]    223 to 225 °C
O=C(CNc1ccc2[nH]c(=O)oc2c1)N1CCN(c2ccc(F)c(Cl)c2)CC1 [Compound I-3]    130 to 132 °C

In one line, give reported melting point of the entry C[C@@H]1CN(c2ccc(F)cc2)C[C@H](C)N1C(=O)C(=O)Nc1ccc2[nH]c(=O)oc2c1 [Compound I-5] . 245 to 246 °C

Could you please provide reported melting point for Cc1cc(N2CCN(C(=O)CNc3ccc4[nH]c(=O)oc4c3)C[C@H]2C)ccc1Cl [Compound I-63] ? Thanks! 112 to 114 °C

Name the recorded melting point of the item Cc1cc(N2CCN(C(=O)C(=O)Nc3ccc4[nH]c(=O)oc4c3)[C@H](C)C2)ccc1Cl [Compound I-40] in your answer. 123 to 124 °C

State, in one line, measured melting point of O=C(CCNc1ccc2[nH]c(=O)oc2c1)N1CCN(c2ccc(Cl)c(F)c2)CC1 [Compound I-2] 187 to 189 °C

For C[C@@H]1CN(c2ccc(Cl)c(F)c2)CCN1C(=O)CNc1ccc2[nH]c(=O)oc2c1 [Compound I-6] , write its melting point. 224 to 226 °C
